Assign ED30 to each entry below.
tested on: Rattus norvegicus; experiment: Compound was tested for its oral antiinflammatory activity in the rat carrageenan paw edema assay (CAR); format: functional
Give bare numbers, in µM/kg.

Would you mind giving ED30 for every compound in the list below?
1. Cc1ccc(SCCCC(CN)c2ccc(F)cc2)cc1.Cl (stereo in doubt; 2)
2. CC(C)(C)c1ccc(SCCCCC(CN)c2ccc(F)cc2)cc1.Cl (stereo not given)

[50, 153.8]

# batch: return ED30 for each of the 3 compounds below
1. Cc1ccc(SCCCCC(CN)c2ccc(F)cc2)cc1.Cl (stereo not given)
2. Cc1ccc(SCCCCCC(CN)c2ccc(F)cc2)cc1.Cl (stereo not given)
3. Cl.NCC(CCCCSc1ccc2ccccc2c1)c1ccc(F)cc1 (stereo not given)

1.4
117.7
171.3

Required: ED30, one value per compound below.
1. CCN(CC)CCCC(C)Nc1c2ccc(Cl)cc2nc2ccc(OC)cc12 (stereo not given)
2. COc1ccc2c(c1)c(CC(=O)O)c(C)n2C(=O)c1ccc(Cl)cc1

[5.8, 2.8]

====

Target: Polyunsaturated fatty acid 5-lipoxygenase (Rattus norvegicus, UniProt P12527)
Sequence (P12527 whole entry): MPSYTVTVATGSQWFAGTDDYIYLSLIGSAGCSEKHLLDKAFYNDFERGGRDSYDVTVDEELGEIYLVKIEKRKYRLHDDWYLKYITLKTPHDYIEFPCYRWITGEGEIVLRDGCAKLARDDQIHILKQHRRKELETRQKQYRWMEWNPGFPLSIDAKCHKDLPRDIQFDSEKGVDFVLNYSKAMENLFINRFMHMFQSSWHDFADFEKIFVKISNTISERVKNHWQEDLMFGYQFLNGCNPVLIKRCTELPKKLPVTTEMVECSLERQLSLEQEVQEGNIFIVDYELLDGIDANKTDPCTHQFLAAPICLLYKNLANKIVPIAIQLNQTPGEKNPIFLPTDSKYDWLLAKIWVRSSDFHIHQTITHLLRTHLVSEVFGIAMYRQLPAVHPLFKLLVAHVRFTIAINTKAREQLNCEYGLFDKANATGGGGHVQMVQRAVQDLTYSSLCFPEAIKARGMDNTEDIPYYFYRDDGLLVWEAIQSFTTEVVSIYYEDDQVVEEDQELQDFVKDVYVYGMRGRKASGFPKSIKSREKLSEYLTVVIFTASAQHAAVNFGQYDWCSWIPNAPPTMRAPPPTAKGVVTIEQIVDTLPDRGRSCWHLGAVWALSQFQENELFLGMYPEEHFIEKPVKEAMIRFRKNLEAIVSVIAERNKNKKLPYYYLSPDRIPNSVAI
value_kind: pIC50
One number for each entry, as −log10 of the molar value.

Previously resolved entries follow.
INSERT INTO results (compound, system_under_test, value_kind, recorded_value) VALUES
  ('Cc1ccc(SCCCC(CN)c2ccc(F)cc2)cc1.Cl (stereo in doubt; 2)', 'Polyunsaturated fatty acid 5-lipoxygenase (Rattus norvegicus, UniProt P12527)', 'pIC50', 4.42),
  ('Cl.NCC(CCCCSc1ccc2ccccc2c1)c1ccc(F)cc1 (stereo unspecified)', 'Polyunsaturated fatty acid 5-lipoxygenase (Rattus norvegicus, UniProt P12527)', 'pIC50', 3.89),
  ('Cl.NCC(CCCSc1ccc2ccccc2c1)c1ccc(F)cc1 (stereo unspecified)', 'Polyunsaturated fatty acid 5-lipoxygenase (Rattus norvegicus, UniProt P12527)', 'pIC50', 4.64);

Identify pIC50 associated with the compound CC(C)(C)c1ccc(SCCCCC(CN)c2ccc(F)cc2)cc1.Cl (stereo unspecified) 3.64

====

target: UniProt P04055
Sequence (P04055 whole entry): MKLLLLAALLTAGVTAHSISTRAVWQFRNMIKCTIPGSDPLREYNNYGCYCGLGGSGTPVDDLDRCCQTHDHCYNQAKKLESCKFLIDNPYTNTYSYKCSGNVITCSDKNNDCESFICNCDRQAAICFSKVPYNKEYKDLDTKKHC
value_kind: pIC50
One number for each entry, as −log10 of the molar value.

INSERT INTO results (compound, recorded_value) VALUES
  ('Cc1ccc(SCCCC(CN)c2ccc(F)cc2)cc1.Cl (stereo in doubt; 2)', 4.55);

Now for the compound whose pIC50 we want.
Please report the measured pIC50 for Cl.NCC(CCCCSc1ccc2ccccc2c1)c1ccc(F)cc1 (stereo not drawn) tested on UniProt P04055. 5.62

====

What ED30 was measured for each of the following?
system: Rattus norvegicus; test: Compound was tested for its oral antiinflammatory activity in the rat carrageenan paw edema assay (CAR); assay type: functional

Example molecules with recorded ED30:
INSERT INTO assay_data (molecule, recorded_value) VALUES
  ('C[C@@H]1C[C@H]2[C@@H]3CCC4=CC(=O)C=C[C@]4(C)[C@@]3(F)[C@@H](O)C[C@]2(C)[C@@]1(O)C(=O)CO', '<2.5 µM/kg'),
  ('Cc1ccc(SCCCC(CN)c2ccc(F)cc2)cc1.Cl (stereo in doubt)', '>172.8 µM/kg');

Query ED30 for Cl.NCC(CCCSc1ccc2ccccc2c1)c1ccc(F)cc1 (stereo not drawn) >153.6 µM/kg
